Provide the recorded IC50 for the entries that follow.
tested on: T. cruzi-infected H9C2 cardiomyocytes, high-content imaging; assay: intracellular T. cruzi amastigote inhibition, imaging, H9C2 host cardiomyocytes, host toxicity (AID 1159565); conditions: measured here: amastigotes per cell;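 also: infected cells incubated 72 h after plating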

>>> df
                                   compound  observed_property    value
0  CCOC(=O)c1cn[nH]c1S(=O)(=O)N1CCC1c1ccccc1 (stereo not drawn)               IC50  > 50 µM
1  CC1CN(Cc2ccc(C#N)cc2)CCN1c1ccc(NC(=O)c2ccccc2F)cc1 (stereo not drawn)               IC50  > 50 µM

// moving on: another record for IC50
Form: item `CCCCCNC(=O)c1c[nH]c2ccc(S(=O)(=O)N(C)c3ccc(OCC)cc3)cc2c1=O` ; test system T. cruzi-infected H9C2 cardiomyocytes, high-content imaging; IC50: > 50 µM

====

Provide the recorded IC50 for the entries that follow.
tested on: T. cruzi-infected H9C2 cardiomyocytes, high-content imaging; assay: intracellular T. cruzi amastigote inhibition, imaging, H9C2 host cardiomyocytes, host toxicity (AID 1159565); conditions: measured here: H9C2 host cell toxicity;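 also: infected cells incubated 72 h after plating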

Previously resolved entries follow.
>>> df
                                   molecule                               target_desc    value
0  COc1ccc(C2CC(c3ccccc3Cl)=NN2C(=O)CNC(=O)C2CCC2)cc1 (configuration not stated)  T. cruzi-infected H9C2 cardiomyocytes, high-content imaging  > 50 µM
1  Cc1ccc2c(c1)-c1onc(C(=O)N3CCCCC3c3cccnc3)c1CO2 (configuration not stated)  T. cruzi-infected H9C2 cardiomyocytes, high-content imaging  > 50 µM
2        O=C(c1ccc(OCCCc2cnc[nH]2)cc1)C1CC1  T. cruzi-infected H9C2 cardiomyocytes, high-content imaging  > 50 µM
3  COc1ccc(S(=O)(=O)NC(C)C)cc1Nc1ncc(-c2cccc(F)c2)cn1  T. cruzi-infected H9C2 cardiomyocytes, high-content imaging  > 50 µM
4  CC1=NN(C(=O)CCn2cnc([N+](=O)[O-])n2)C(O)(C(F)(F)F)C1 (configuration not stated)  T. cruzi-infected H9C2 cardiomyocytes, high-content imaging  > 50 µM
5           c1cc(-c2ncc(-c3ccn[nH]3)s2)ccn1  T. cruzi-infected H9C2 cardiomyocytes, high-content imaging  > 50 µM

Need IC50 for each of these molecules.
1. Cc1nc(-c2ccc3c(c2)OCO3)sc1C(=O)NCc1ccc2c(c1)OCO2
2. Cc1ccc(NC(=O)C(C)n2nc([N+](=O)[O-])c(Br)c2C)cc1Cl (configuration not stated)
3. Nc1nonc1-c1nc2cncc(C(=O)N3CC[C@H](N)C3)c2n1CC1CC1
4. O=C(NCc1nnc2n1CCCCC2)c1csc(-c2ccccc2)n1
5. C=CCn1nc([N+](=O)[O-])nc1Oc1ccc(Cl)cc1Cl

Result string:
["> 50 µM", "> 50 µM", "> 50 µM", "> 50 µM", "> 50 µM"]

====

test system: T. cruzi-infected H9C2 cardiomyocytes, high-content imaging; test: intracellular T. cruzi amastigote inhibition, imaging, H9C2 host cardiomyocytes, host toxicity (AID 1159565); conditions: measured here: amastigotes per cell;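 also: infected cells incubated 72 h after plating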
Quick rule for you: IC50 under 2000 nM gets true (1), anything else gets false (0).

Example cases with answers are listed next.
In [3]: df
Out[3]:
                                   compound  label_class
0  O=C(Nc1ccc(-c2nc3ccccc3c(=O)[nH]2)cc1)c1cccs1    false (0)
1  Cc1cc(C)n(-c2nc(NC(C)C)nc(NC(C)(C)C)n2)n1     true (1)
2  NS(=O)(=O)c1ccc(Nc2nccc(-c3cnn4ncccc34)n2)cc1     true (1)
3  CCOc1ccc(OCC(=O)N2c3ccccc3CC2C(=O)NC)cc1 (stereo not given)    false (0)
4  COc1cccc(CN(C)Cc2nc(N)c3c(C)c(C)sc3n2)c1    false (0)

Query string: Confirm or reject: IC50 of CCC1Oc2cc(S(=O)(=O)N(C)CC(=O)N3CCc4ccccc4C3)c(C)cc2NC1=O (stereo not given) lies strictly below 2000 nM
Result string: true (1)

Query string: Confirm or reject: IC50 of O=S1N=C(NCCCN(Cc2ccc(F)cc2)c2ccccn2)C(NCc2ccncc2)=N1 (stereo not given) lies strictly below 2000 nM
Result string: false (0)

Query string: Confirm or reject: IC50 of `COc1ccc(-c2csc(NC(=O)c3ccc([N+](=O)[O-])s3)n2)cc1OC` lies strictly below 2000 nM
Result string: true (1)

Query string: Confirm or reject: IC50 of CC(CCc1ccccc1)NC(=O)CN(Cc1ccccn1)Cc1ccccn1 (stereo not given) lies strictly below 2000 nM
Result string: false (0)

Query string: Confirm or reject: IC50 of `COc1cnc2ccc(=O)n(CCN3CCC(NC(=O)Cc4ccc(Cl)c(Cl)c4)CC3)c2c1` lies strictly below 2000 nM
Result string: true (1)

Query string: Confirm or reject: IC50 of COc1ccc(C)cc1-c1csc(NC(=O)C(C)n2ccnc2)n1 (stereo not given) lies strictly below 2000 nM
Result string: true (1)

Query string: Confirm or reject: IC50 of O=C(Nc1ccc(C(=O)N2CCCC2c2ccc3c(c2)OCCCO3)cc1)c1ccco1 (stereo not given) lies strictly below 2000 nM
Result string: true (1)

====

test system: T. cruzi-infected H9C2 cardiomyocytes, high-content imaging; assay: intracellular T. cruzi amastigote inhibition, imaging, H9C2 host cardiomyocytes, host toxicity (AID 1159565); conditions: measured here: amastigotes per cell;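 also: infected cells incubated 72 h after plating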
pIC50: −log10 of the molar value.
Met means recorded pIC50 is 6 or above; Not met means it is below 6.

Example cases with answers are listed next.
In [3]: df
Out[3]:
                                   compound                               target_desc  label_class
0  CCn1c(-c2nonc2N)nc2c([C@@H](C)O)ncc(O[C@H](CN)c3ccccc3)c21  T. cruzi-infected H9C2 cardiomyocytes, high-content imaging      Not met
1           Oc1cccnc1-c1n[nH]c(Cc2ccccc2)n1  T. cruzi-infected H9C2 cardiomyocytes, high-content imaging      Not met

Query string: Quick check: does O=C(CN1CCC2(O)CCCCC2C1c1ccc2c(c1)OCO2)Nc1ccc(Cl)cc1Cl (stereo unspecified) have pIC50 greater than or equal to 6?
Result string: Not met

Query string: Quick check: does `CCc1nn(-c2ncc(F)c(NC(C)C)n2)c(N)c1C1CCCCC1` have pIC50 greater than or equal to 6?
Result string: Not met

Query string: Quick check: does O=C(NCC(c1cccs1)N1CCOCC1)c1ccc([N+](=O)[O-])o1 (stereo unspecified) have pIC50 greater than or equal to 6?
Result string: Not met

Query string: Quick check: does `Cc1cc(NC(=O)CC2CCCCC2)n(-c2nc3c(c(=O)[nH]2)CCC3)n1` have pIC50 greater than or equal to 6?
Result string: Met

Query string: Quick check: does `Nc1nc(-c2ccccn2)nc(N)c1Cc1c(F)cccc1Cl` have pIC50 greater than or equal to 6?
Result string: Not met

Query string: Quick check: does `COc1ccc(Cl)cc1CC(=O)Nc1n[nH]c(-c2ccccn2)n1` have pIC50 greater than or equal to 6?
Result string: Not met

Query string: Quick check: does CNC(=O)C1Cc2ccccc2N1C(=O)COc1cccc(OC)c1 (stereo unspecified) have pIC50 greater than or equal to 6?
Result string: Not met

Query string: Quick check: does `N#Cc1cc(-c2ccnc(Nc3cccc(CN4CCOCC4)c3)n2)ccc1NCCN` have pIC50 greater than or equal to 6?
Result string: Not met

Query string: Quick check: does `COc1ccc(CNc2cc(C3CC3)nc(-c3nccn3C)n2)cc1` have pIC50 greater than or equal to 6?
Result string: Met

Query string: Quick check: does `Cc1ccc2nc(N(Cc3cccnc3)C(=O)CCc3ccccc3)sc2c1` have pIC50 greater than or equal to 6?
Result string: Met

Query string: Quick check: does `COc1ccc(NS(=O)(=O)c2cc(NC(=O)c3ccc([N+](=O)[O-])s3)ccc2OC)cc1` have pIC50 greater than or equal to 6?
Result string: Met

Query string: Quick check: does `CCCN1CCN(Cc2ccc(S(=O)(=O)Nc3cccc(C)c3)cc2)CC1` have pIC50 greater than or equal to 6?
Result string: Met

Query string: Quick check: does NCC(Cc1ccccc1)NC(=O)c1cnc(-c2c[nH]c3ncccc23)s1 (stereo unspecified) have pIC50 greater than or equal to 6?
Result string: Not met

Query string: Quick check: does `COc1ccc(-c2csc(NC(=O)c3ccc([N+](=O)[O-])s3)n2)cc1` have pIC50 greater than or equal to 6?
Result string: Met

Query string: Quick check: does `Cc1nn(-c2nc(N)nc(-c3ccccn3)n2)c(C)c1Cc1ccccc1` have pIC50 greater than or equal to 6?
Result string: Not met

Query string: Quick check: does CC1=C(C(=O)Nc2ccc(Cl)cc2)C(c2ccncc2)n2ncc(C(=O)Nc3ccccc3)c2N1 (stereo unspecified) have pIC50 greater than or equal to 6?
Result string: Met

Query string: Quick check: does `Cc1sc(C)c(C(F)(F)F)c1CNCCCNc1cc(=O)c2ccccc2[nH]1` have pIC50 greater than or equal to 6?
Result string: Met

Query string: Quick check: does `CC(C)(C)CC(=O)NCc1noc(COc2ccccc2)n1` have pIC50 greater than or equal to 6?
Result string: Not met

Query string: Quick check: does Cc1nc(N2CC(C)OC(C)C2)sc1C(=O)Nc1ccc2c(c1)OCO2 (stereo unspecified) have pIC50 greater than or equal to 6?
Result string: Not met

Query string: Quick check: does Cc1cc2cncn2c(C2CCCCN2C(=O)c2cccs2)n1 (stereo unspecified) have pIC50 greater than or equal to 6?
Result string: Met

From: PubChem BioAssay AID1159565
